From: PubChem BioAssay (NCI)

system: MOLT-4 leukemia; assay: NCI-60 one-dose screen, 48 h; details: 10 µM unless noted
Compounds without any hit were thinned out: in the full panel of roughly 83,000, 20% have a hit. The source made the active and inactive calls. How the source made its calls: active means growth percent below 10; inactive means the rest.
The reply should be one of these categories: active, inactive

[
  {
    "Compound": "CNC(=O)c1cc(COc2nnc(Nc3ccc(Cl)cc3)c3ccoc23)ccn1",
    "Class name": "inactive"
  }
]

Task item: For Nc1cc2c(cc1Br)-c1c(C(=O)O)cccc1C2O (centres undefined) , what call appears in the results of this test?
Reply: inactive

Task item: For CC(C)(C)c1cnc(CSc2cnc(NC(=O)C3CCNCC3)s2)o1 , what call appears in the results of this test?
Reply: active

Task item: For Cc1cccc(Cl)c1NC(=O)c1cnc(Nc2cc(N3CCOCC3)cc(S(C)(=O)=O)c2)s1 , what call appears in the results of this test?
Reply: inactive

Task item: For C=CCCCC(=O)CCC(=O)OCC1O[C@@H](O[C@@H]2C(O)[C@@H](OC(C)=O)C(C)O[C@H]2O[C@H](CC=C)CCCCC)C(O)[C@@H](OC(=O)/C(C)=C/C)[C@@H]1OC(=O)/C=C/c1ccccc1 (some centres undefined) , what call appears in the results of this test?
Reply: inactive

---

tested on: NCI-H226 lung; assay: NCI-60 one-dose screen, 48 h (100 = growth as untreated, 0 = no growth, -100 = all killed); conditions: 10 µM unless noted
About 83,000 compounds went through this panel and 20% of them were active in at least one assay; those are over-represented in the sample as a whole. The source made the active and inactive calls. Rule for the calls: active = growth percent below 10; inactive = the rest.
growth listing for selected compounds.

Sample records with growth:
[
  {
    "Compound": "Cc1c(Cn2c(C)nc3c(C(=O)O)cc(N4CCOCC4)cc32)cccc1C(F)(F)F",
    "Assay target": "NCI-H226 lung",
    "growth": "114% (inactive)"
  },
  {
    "Compound": "N#Cc1c(-c2ccc(Cl)cc2)csc1NC(=O)Nc1cccc(C(F)(F)F)c1",
    "Assay target": "NCI-H226 lung",
    "growth": "17.6% (inactive)"
  },
  {
    "Compound": "COc1cc2c(cc1OCCCCN1CCN(CC(=O)Nc3ccc(Cl)cc3C(=O)c3ccccc3Cl)CC1)N=CC1CCCN1C2=O (stereo not given)",
    "Assay target": "NCI-H226 lung",
    "growth": "-88.1% (active)"
  },
  {
    "Compound": "CC(CCCC(=O)O)c1ccoc1 (stereo not given)",
    "Assay target": "NCI-H226 lung",
    "growth": "102% (inactive)"
  },
  {
    "Compound": "c1cc[n+](Cc2c3ccccc3cc3c2ccc2ccccc23)cc1",
    "Assay target": "NCI-H226 lung",
    "growth": "26.3% (inactive)"
  },
  {
    "Compound": "O=[N+]([O-])c1cc(Br)cc2c1[nH]c1ccc(Br)cc12",
    "Assay target": "NCI-H226 lung",
    "growth": "53.9% (inactive)"
  }
]

Task item: Name the reported growth value associated with the compound COc1ccc(Nc2ncccc2NC(=O)c2cn(Cc3cccc(Oc4ccccc4)c3)nn2)cc1
Reply: 93.8% (inactive)

Task item: Name the reported growth value associated with the compound COc1ccc(-c2nc(N)ncc2Oc2ccccc2OC)c(O)c1
Reply: 73.5% (inactive)

Task item: Name the reported growth value associated with the compound Cc1sc2c(c1C)c(=O)nc1c(-c3nc(-c4ccccc4)cs3)n[nH]n12
Reply: 89.9% (inactive)

Task item: Name the reported growth value associated with the compound CCN(CC)CCCC(C)Nc1cc(-c2ccc(C(F)(F)F)cc2)c(C#N)c2nc3ccccc3n12 (stereo not given)
Reply: -39.6% (active)

---

Tested on: OVCAR-3 ovarian
Experiment: NCI-60 one-dose screen, 48 h (100 = growth as untreated, 0 = no growth, -100 = all killed)
Settings: 10 µM unless noted
Method: Growth inhibition of the OVCAR-3 human tumor cell line is measured as a screen for anti-cancer activity. Cells are grown in 96 well plates and exposed to the test compound for 48 hours. Compounds are tested at a single concentration, which is 10^-5 M for most compounds. The reported endpoint is percent growth (GI% or GIPRCNT), where numbers from 0 - 100% represent growth inhibition, and numbers from -100% - 0 represent cell death. For example, a value of 40 represents 60% growth inhibition. […]
About 83,000 compounds went through this panel and 20% of them were active in at least one assay; those are over-represented in the sample as a whole. Active and inactive are the calls of the source. How the source made its calls: active means growth percent below 10; inactive means the rest.
Assay metric: growth

Sample records with growth:
[
  {
    "Compound": "CN1CCN(c2ccc(OC(F)(F)F)c(Nc3ncc4c(n3)-c3c(c(C(N)=O)nn3CCO)CC4)c2)CC1",
    "Assay target": "OVCAR-3 ovarian",
    "Reading": "41% (inactive)"
  },
  {
    "Compound": "C#Cc1cccc(Nc2ncnc3cc4c(cc23)OCCOCCOCCO4)c1",
    "Assay target": "OVCAR-3 ovarian",
    "Reading": "40.9% (inactive)"
  },
  {
    "Compound": "COc1ccc2c(OCc3nnc4ccc(-c5ccccc5)nn34)ccnc2c1",
    "Assay target": "OVCAR-3 ovarian",
    "Reading": "110% [2.5 µM] (inactive)"
  },
  {
    "Compound": "N[C@@H]1CCCN(c2c(/C=C3\\SC(=O)NC3=O)cccc2-c2ccccc2)C1",
    "Assay target": "OVCAR-3 ovarian",
    "Reading": "54.2% (inactive)"
  },
  {
    "Compound": "O=C(Nc1ccc(-c2ccnc(Nc3ccc(N4CCOCC4)cc3)n2)cc1)[C@@H]1CCCN1",
    "Assay target": "OVCAR-3 ovarian",
    "Reading": "76.5% (inactive)"
  }
]

Task item: Name the reported growth value associated with the compound COc1ccc(-c2cc3c(oc2=O)-c2ccccc2OC3OC(C)=O)cc1 (stereo not given)
Reply: 109% (inactive)

---

tested on: UO-31 renal; assay: NCI-60 one-dose screen, 48 h; conditions: 10 µM unless noted
About 83,000 compounds went through this panel and 20% of them were active in at least one assay; those are over-represented in the sample as a whole. Active and inactive are the calls of the source. How the source made its calls: active means growth percent below 10; inactive means the rest.
The reply should be one of these categories: 1.0 for active, 0.0 for inactive

// known answers, use as guide
[
  {
    "Molecule": "NC(=O)c1n[nH]n2c1nc(=O)c1c3c(sc12)CCCC3",
    "Class name": 0.0
  },
  {
    "Molecule": "COc1ccc2c(CCc3ccc(Cl)cc3)c3[n+](cc2c1OC)CCc1cc2c(cc1-3)OCO2",
    "Class name": 0.0
  },
  {
    "Molecule": "C[C@@H](N)c1ccc(C(=O)Nc2ccnc3[nH]ccc23)cc1",
    "Class name": 0.0
  }
]

Task item: For COc1ccc2c(OCc3nnc4ccc(-c5ccccc5)nn34)ccnc2c1 , what call appears in the results of this test?
Reply: 0.0

Task item: For O=C1C=CC2(NN=C(c3ccccc3)N2c2cccc(Cl)c2)c2cccc(O)c21 (stereo not given) , what call appears in the results of this test?
Reply: 0.0

Task item: For CC12O[C@H](C[C@@H](OC(=O)CCC(=O)O)[C@H]1O)n1c3ccccc3c3c4c(c5c6ccccc6n2c5c31)C(=O)NC4=O , what call appears in the results of this test?
Reply: 1.0

---

growth listing for selected molecules.
system: RPMI-8226 leukemia; experiment: NCI-60 one-dose screen, 48 h (100 = growth as untreated, 0 = no growth, -100 = all killed); details: 10 µM unless noted
This is part of a sample that, as a whole, favours compounds with a hit. Of some 83,000 tested, about 20% had one in any assay.
Report as a plain number; the unit % is understood.

Task item: Name the reported growth value associated with the molecule COc1ccc(-c2cc3c(oc2=O)-c2ccccc2OC3OC(C)=O)cc1 (centres undefined)
Reply: 83.1

---

test system: HOP-92 NSCLC; test: NCI-60 one-dose screen, 48 h; details: 10 µM unless noted
About 83,000 compounds went through this panel and 20% of them were active in at least one assay; those are over-represented in the sample as a whole. The source made the active and inactive calls. The calls were made as follows: active = growth percent below 10; inactive = the rest.
The reply should be one of these categories: active, inactive

[
  {
    "Molecule": "Cc1ccc(NC(=O)c2ccc(CN3CCN(C)CC3)cc2)cc1Nc1nc(-c2cccnc2)cs1",
    "Class name": "inactive"
  },
  {
    "Molecule": "CCc1nc(C(N)=O)c(Nc2ccc(N3CCC(N4CCN(C)CC4)CC3)c(OC)c2)nc1NC1CCOCC1",
    "Class name": "active"
  },
  {
    "Molecule": "CC(C)=CCc1cc2c(cc1O)C1=C(C(=O)C3=C(C1=O)S(=O)(=O)CCN3)C(C=C(C)C)O2 (stereo not drawn)",
    "Class name": "active"
  }
]

Task item: For Cn1cc(-c2ncnc3ccc(-c4cnc(Cl)c(NS(C)(=O)=O)c4)cc23)c2ccccc21 , what call appears in the results of this test?
Reply: active

Task item: For CCN1CCN(c2nc(C)cc(N(CCNc3ccnc4cc(Cl)ccc34)Cc3ccc4c(c3)OCO4)n2)CC1 , what call appears in the results of this test?
Reply: active

Task item: For COc1cc2c3c(c1)nc(C)n3CCC2 , what call appears in the results of this test?
Reply: inactive
